# Tested on: B16-F10
# assay: Cytotoxicity against mouse B16-F10 cells assessed as inhibition of cell growth measured for 24 hrs by MTT assay
# Assay type: functional, cell-based
# condition_parameters: B16-F10, 24 h
quantity_measured: IC50 (µM)
Please give a number only; it is taken to be in µM.

Here is how some compounds turned out for IC50.
{"smiles_code": "COc1ccc(/C=C(/C(=O)OCc2cn(CC(=O)c3ccc(Cl)c(Cl)c3)nn2)c2ccc(OC)c(OC)c2)cc1OC", "measured": 29.6}
{"smiles_code": "COc1ccc(C(=O)Cn2cc(COC(=O)/C(=C/c3ccc(OC)c(OC)c3)c3ccc4c(c3)OCO4)nn2)cc1", "measured": 37.7}
{"smiles_code": "COc1ccc(/C=C(/C(=O)OCc2cn(Cc3ccc(C)cc3)nn2)c2ccc(OC)c(OC)c2)cc1OC", "measured": 1.73}
{"smiles_code": "COc1ccc(/C=C(/C(=O)OCc2cn(Cc3ccc([N+](=O)[O-])cc3)nn2)c2ccc(OC)c(OC)c2)cc1OC", "measured": 17.5}
{"smiles_code": "COc1ccc(/C=C(/C(=O)OCc2cn(CC(=O)c3ccc(Cl)c(Cl)c3)nn2)c2ccc3c(c2)OCO3)cc1OC", "measured": 41.6}
{"smiles_code": "COc1ccc(/C=C(/C(=O)OCc2cn(Cc3ccccc3F)nn2)c2ccc(OC)c(OC)c2)cc1OC", "measured": 17.4}
{"smiles_code": "COc1ccc(/C=C(/C(=O)OCc2cn(Cc3ccc(Br)cc3)nn2)c2ccc(OC)c(OC)c2)cc1OC", "measured": 1.53}
{"smiles_code": "COc1ccc(/C=C(/C(=O)OCc2cn(Cc3ccccc3[N+](=O)[O-])nn2)c2ccc(OC)c(OC)c2)cc1OC", "measured": 39.5}

Note down IC50 recorded for `COc1ccc(C(=O)Cn2cc(COC(=O)/C(=C/c3ccc(OC)c(OC)c3)c3ccc(OC)c(OC)c3)nn2)cc1` 14.1

Note down IC50 recorded for `COc1ccc(/C=C(/C(=O)OCc2cn(Cc3cc(C)ccc3C)nn2)c2ccc(OC)c(OC)c2)cc1OC` 40.8

Note down IC50 recorded for `COc1ccc(/C=C(/C(=O)OCc2cn(CC(=O)c3ccccc3)nn2)c2ccc(OC)c(OC)c2)cc1OC` 40.2

Note down IC50 recorded for `COc1ccc(/C=C(/C(=O)OCc2cn(Cc3cc(F)ccc3F)nn2)c2ccc(OC)c(OC)c2)cc1OC` 15.1

Note down IC50 recorded for `COc1ccc(/C=C(/C(=O)OCc2cn(Cc3cccc(Cl)c3)nn2)c2ccc(OC)c(OC)c2)cc1OC` 22.8

Note down IC50 recorded for `COc1ccc(/C=C(/C(=O)OCc2cn(CC(=O)c3ccccc3)nn2)c2ccc3c(c2)OCO3)cc1OC` 30.9

Note down IC50 recorded for `COc1ccc(/C=C(/C(=O)OCc2cn(Cc3ccc(F)cc3)nn2)c2ccc(OC)c(OC)c2)cc1OC` 2.37

###

# target_entity: Tubulin
# assay: Inhibition of tubulin polymerization in human HCT-116 cells
quantity_measured: IC50
Kindly format the answer as number then unit.

Send back Tubulin IC50 of `COc1ccc(/C=C(/C(=O)OCc2cn(Cc3cc(F)ccc3F)nn2)c2ccc(OC)c(OC)c2)cc1OC` only. 4.51 µM

###

# assay: Cytotoxicity against human HaCaT cells assessed as inhibition of cell growth measured for 24 hrs by MTT assay
# Assay type: toxicity, cell-based
quantity_measured: IC50 at 24 h (µM)
Please give a number only; it is taken to be in µM.

Note down IC50 at 24 h recorded for `COc1ccc(/C=C(/C(=O)OCc2cn(Cc3cc(F)ccc3F)nn2)c2ccc(OC)c(OC)c2)cc1OC` 72.2

###

# Test system: BT-474
# assay: Cytotoxicity against human BT-474 cells assessed as inhibition of cell growth measured for 24 hrs by MTT assay
# Format: functional, cell-based
# condition_parameters: BT-474, 24 h
Measured IC50 by item
Please give a number only; it is taken to be in µM.

Here is how some compounds turned out for IC50.
{"compound": "COc1ccc(/C=C(/C(=O)OCc2cn(Cc3cc(C)ccc3C)nn2)c2ccc(OC)c(OC)c2)cc1OC", "result_unit": "µM", "IC50": 20.1}
{"compound": "COc1ccc(/C=C(/C(=O)OCc2cn(Cc3ccc(C)cc3)nn2)c2ccc(OC)c(OC)c2)cc1OC", "result_unit": "µM", "IC50": 12.4}
{"compound": "COc1ccc(/C=C(/C(=O)OCc2cn(Cc3ccc([N+](=O)[O-])cc3)nn2)c2ccc(OC)c(OC)c2)cc1OC", "result_unit": "µM", "IC50": 28.4}

Note down IC50 recorded for COc1cc2c(c(OC)c1OC)-c1ccc(OC)c(=O)cc1[C@@H](NC(C)=O)CC2 [COLCHICINE] 12.5

###

Measured IC50 by item
# System: B16-F10
# assay: Cytotoxicity against mouse B16-F10 cells assessed as inhibition of cell growth measured for 24 hrs by MTT assay
# Format: functional, cell-based
# condition_parameters: B16-F10, 24 h
Please give a number only; it is taken to be in µM.

{"smiles_code": "COc1ccc(/C=C(/C(=O)OCc2cn(Cc3ccccc3)nn2)c2ccc(OC)c(OC)c2)cc1OC", "target_entity": "B16-F10", "result_unit": "µM", "IC50": 16.1}

Consider now this further compound.
Note down IC50 recorded for `COc1ccc(/C=C(/C(=O)OCc2cn(CC(=O)c3ccc(Cl)cc3)nn2)c2ccc3c(c2)OCO3)cc1OC` 28.9
